assay_notes: Cytotoxicity against human LX2 cells assessed as reduction in cell viability at 5 to 25 uM after 6 hrs by CellTiter-Glo luminescent assay
Assay type: cell-based
settings: lx2, 6 h
measurement_kind: Activity

compound	Activity
CCN(CC)c1ccc2c(c1)Oc1nc(N)c(C#N)c(N)c1C2Sc1ccc(Cl)cc1 (stereo not given)	Toxic
CCN(CC)c1ccc2c(c1)Oc1nc(N)c(C#N)c(N)c1C2Sc1ccc(Br)cc1 (stereo not given)	Non-Toxic
CCN(CC)c1ccc2c(c1)Oc1nc(N)c(C#N)c(N)c1C2Sc1ccc(OC)cc1 (stereo not given)	Toxic
CCN(CC)c1ccc2c(c1)Oc1nc(N)c(C#N)c(N)c1C2Sc1ccc(F)cc1 (stereo not given)	Non-Toxic

The record that follows has no Activity shown yet.
Incoming: Fill in reported Activity for this entry: CCc1ccc(SC2c3ccc(N(CC)CC)cc3Oc3nc(N)c(C#N)c(N)c32)cc1 (stereo not given)
Outgoing: Non-Toxic
